The values you see were collected from PubChem BioAssay AID2314.

- assay.remarks: Cycloheximide Counterscreen for Small Molecule Inhibitors of Shiga Toxin
- particulars: cell reporter, cycloheximide protein synthesis inhibition counterscreen; active compounds read high
About 37,000 (12%) of roughly 300,000 compounds were called active. The sample as a whole holds a higher share of actives than the screen did.
reported.metric: max response (%)
Quick note: give the figure in %, leave out the unit.

Some compounds with recorded max response:
{"compound": "Cn1c(=O)[nH]c(=O)c2c1nc(N1CCN(CCO)CC1)n2CCSc1nc2ccccc2s1", "value.units": "%", "max response": -5.89}
{"compound": "Cc1nc2nc(CSc3nc4ccccc4s3)cc(=O)n2[nH]1", "value.units": "%", "max response": -7.38}
{"compound": "CCn1c(SCC(=O)c2ccc(Cl)s2)nnc1-c1cccs1", "value.units": "%", "max response": 24.2}
{"compound": "NC(=O)Cc1ccc2sc(-c3ccccc3)nc2c1", "value.units": "%", "max response": 75.6}
{"compound": "Cc1cccc(C(=O)OC(C)CN2CCN(C)CC2)c1 (centres undefined)", "value.units": "%", "max response": 41.3}
{"compound": "Cc1ccc2[nH]c(=O)c(CN3CCCCC3)c(-c3ccccc3)c2c1", "value.units": "%", "max response": -4.55}

Query: max response; subject: Cc1cccc(C(=O)OC(C)CN2CCCC2)c1 (centres undefined)
6.5

Lookup S=c1[nH]nc(-c2cccnc2)n1/N=C/C(Cl)=C\c1ccccc1
-2.93

Lookup COc1ccc(C(=O)Nc2ccccc2C(=O)N/N=C/c2ccccc2OC)cc1
17.9

----------
- assay.remarks: Cycloheximide Counterscreen for Small Molecule Inhibitors of Shiga Toxin
- particulars: cell reporter, cycloheximide protein synthesis inhibition counterscreen; active compounds read high
Hit rate of the full screen: of about 300,000 compounds, about 37,000 (12%) were called active. The list comes from a sample in which actives are over-represented; it also holds close analogues and randomly drawn compounds.
reported.metric: max response (%)
Quick note: give the figure in %, leave out the unit.

{"molecule": "Cc1ccc(NC(=S)N(CCN2CCCCC2)Cc2ccco2)cc1C", "reported.metric": "max response", "obs.value": 6.6}
{"molecule": "CC1CCCCC1NC(=O)CCS(=O)(=O)c1ccc2c(c1)NC(=O)CO2 (stereo unspecified)", "reported.metric": "max response", "obs.value": -2.74}
{"molecule": "CC(=O)N1CCc2cc(S(=O)(=O)NC3CCCCC3)ccc21", "reported.metric": "max response", "obs.value": -2.05}
{"molecule": "Cc1cc(N)n2nc(-c3ccc(C(C)(C)C)cc3)cc2n1", "reported.metric": "max response", "obs.value": 46.8}

// below: max response requested for another molecule
Query: max response; subject: Cc1cc(C(C)(C)C)n2nc(C)c(-c3ccccc3)c2n1
-2.81

----------
- assay.remarks: Cycloheximide Counterscreen for Small Molecule Inhibitors of Shiga Toxin
- particulars: cell reporter, cycloheximide protein synthesis inhibition counterscreen; active compounds read high
Out of some 300,000 compounds screened, about 37,000 (12%) were called active. The entries come from a sample that favours actives as a whole.
reported.metric: max response (%)
Quick note: give the figure in %, leave out the unit.

Some molecules with recorded max response:
{"molecule": "CS(=O)(=O)Nc1ccccc1N=C(c1ccccc1)c1ccccc1", "max response (%)": -4.16}
{"molecule": "COc1ccccc1-c1noc(CSc2nc(C)cc(=O)[nH]2)n1", "max response (%)": 1.82}
{"molecule": "Cc1cc(C(=O)NNC(=S)NC(C)c2ccccc2)cs1 (stereo unspecified)", "max response (%)": -2.7}
{"molecule": "O=C(Cn1nc(C(=O)O)c2ccccc2c1=O)Nc1ccc(F)cc1", "max response (%)": 5.62}
{"molecule": "COc1ccc(CCNC(=O)CS(=O)(=O)Cc2nc(-c3ccc(C)cc3)oc2C)cc1OC", "max response (%)": -4.16}

Query: max response; subject: Cc1nc2ccccc2nc(C)c1=NOCc1ccc(Cl)cc1Cl
39.1

Lookup COc1ccc2oc(=O)c(C(=O)NCc3ccccn3)cc2c1
30.2

Lookup COc1ccccc1CSc1nc2ccccc2[nH]1
41

Lookup CCCCCN(C(=O)CCC(=O)OCC(=O)NCc1ccc(OC)cc1)c1c(N)n(CCCC)c(=O)[nH]c1=O
-0.685

Lookup CCOC(=O)c1cc2cc(C)ccc2[nH]1
39.7

----------
- assay.remarks: Cycloheximide Counterscreen for Small Molecule Inhibitors of Shiga Toxin; note: read at 38.3 µM for the half of the compounds with a filed dose; 0% is about no effect
- particulars: cell reporter, cycloheximide protein synthesis inhibition counterscreen; active compounds read high
About 37,000 (12%) of roughly 300,000 compounds were called active. Only a selection was taken, and actives are over-represented in it overall.
reported.metric: max response (%)
Quick note: give the figure in %, leave out the unit.

Some molecules with recorded max response:
{"molecule": "COc1ccc(CCC(=O)OCC(=O)Nc2ccc(C)c(S(=O)(=O)N(C)C)c2)cc1", "value.units": "%", "obs.value": -1.02}
{"molecule": "COc1ccc([N+](=O)[O-])cc1-c1nc2ccccc2nc1-c1ccccc1", "value.units": "%", "obs.value": -2.38}
{"molecule": "CN1CCN(Cc2ccc(OC(F)(F)F)cc2)CC1", "value.units": "%", "obs.value": -2.95}
{"molecule": "Cc1ccc(S(=O)(=O)NCc2cn3ccsc3n2)c(C)c1", "value.units": "%", "obs.value": 2.86}
{"molecule": "COc1ccc2c(c1)C(=C(C#N)C#N)C(=O)N2CCc1ccccc1", "value.units": "%", "obs.value": 13.7}

Query: max response; subject: FC(F)(F)Oc1ccc(-c2cn3cccnc3n2)cc1
50.9

Lookup CCc1ccc(CN(C)C(=O)CCc2nnc(-c3ccc(-c4ccccc4)cc3)o2)nc1
16.7

Lookup Cc1ccc(Nc2nc(N3CCOCC3)nc(N3CCOCC3)n2)cc1Cl
-3.32

Lookup CC1=NN(Cc2ccccc2)C(=O)/C1=C/c1ccc(N(C)C)cc1
3.72

----------
- assay.remarks: Cycloheximide Counterscreen for Small Molecule Inhibitors of Shiga Toxin; note: read at 38.3 µM for the half of the compounds with a filed dose; 0% is about no effect
- particulars: cell reporter, cycloheximide protein synthesis inhibition counterscreen
In all, about 300,000 compounds went through this assay and about 37,000 (12%) were called active. Cut-off read from the data, not from the text of the source: active = max response mostly above about 13% (no sharp cut-off); inactive = mostly below about 14%. This is one part of a sample in which actives are shown more often than they occur.
Pick from active, inactive when you respond.

Consider the worked cases shown below.
{"compound": "Cc1ccc(C(=O)N2CCCC2)c(F)c1F", "group": "inactive"}
{"compound": "CCC/C=C(\\CCC)C(NC(=O)Cc1ccccc1)c1ccc(C(=O)OC)cc1 (configuration not stated)", "group": "inactive"}
{"compound": "CN1C2CCC1/C(=C\\c1ccccc1Cl)C(=O)/C2=C\\c1ccccc1Cl", "group": "inactive"}
{"compound": "CCOC(=O)C1=C(C)NC(=S)NC1c1cccs1 (configuration not stated)", "group": "inactive"}
{"compound": "C=CCOC(=O)C1=C(C)NC(C)=C(C(=O)OCC=C)C1c1cccs1", "group": "active"}
{"compound": "COc1cc(C)c(C(C)C)cc1S(=O)(=O)n1ccnc1", "group": "inactive"}

# outcome recorded in this test, key = CCc1ccc(-c2nn(-c3ccccc3)cc2CSC(=N)N)cc1
inactive

Lookup COC(=O)c1ccc(CSc2nncn2C)cc1
active

Lookup COc1ccc(N=Nc2c(-c3ccc(OC)cc3)[nH]oc2=O)cc1
inactive

Lookup CC(Sc1nnc2c(n1)C1CCC2(C)C1(C)C)C(=O)Nc1ccccc1 (configuration not stated)
inactive

Lookup Cc1cc(C)c2c(-c3ccc(F)cc3)c(C#N)c(=O)n(C)c2n1
inactive

Lookup Oc1ccc(N=Cc2sc3ccccc3c2Cl)cc1
active

----------
- assay.remarks: Cycloheximide Counterscreen for Small Molecule Inhibitors of Shiga Toxin; note: read at 38.3 µM for the half of the compounds with a filed dose; 0% is about no effect
- particulars: cell reporter, cycloheximide protein synthesis inhibition counterscreen; active compounds read high
In all, about 300,000 compounds went through this assay and about 37,000 (12%) were called active. This is one part of a sample in which actives are shown more often than they occur.
max response for assorted molecules
Quick note: give the figure in %, leave out the unit.

Some molecules with recorded max response:
{"molecule": "COc1cccc(COc2ccc(N(C)S(=O)(=O)c3ccccc3)cc2)c1", "value.units": "%", "obs.value": -0.489}
{"molecule": "COc1ccc(/C=N/NC(=O)c2ccc(Cl)cc2)cc1COC(C)=O", "value.units": "%", "obs.value": 1.21}

// below: max response requested for another molecule
Query: max response; subject: Cc1cccc(C(=O)N2CCN(S(=O)(=O)N3CCCCC3)CC2)c1
-2.15

----------
- assay.remarks: Cycloheximide Counterscreen for Small Molecule Inhibitors of Shiga Toxin; note: read at 38.3 µM for the half of the compounds with a filed dose; 0% is about no effect
- particulars: cell reporter, cycloheximide protein synthesis inhibition counterscreen; active compounds read high
The whole screen tested about 300,000 compounds, of which about 37,000 (12%) were called active. What follows is part of a selection rich in actives, with near analogues and random picks from the rest.
reported.metric: max response (%)
Quick note: give the figure in %, leave out the unit.

Some compounds with recorded max response:
{"compound": "O=C(N/N=C/c1cccc([N+](=O)[O-])c1)C1CC(=O)N(c2ccc(Br)cc2)C1 (stereo unspecified)", "max response / %": 0.637}
{"compound": "O=C(c1ccc(Br)o1)N1CCN(CCOc2ccccc2)CC1", "max response / %": -3.01}
{"compound": "O=[N+]([O-])c1cccc(/C=N/Nc2ncc(Br)cn2)c1", "max response / %": 29.2}

Query: max response; subject: COc1ccccc1C(=O)Nn1c(-c2cccs2)nc2ccccc2c1=O
2.63

Lookup COc1ccc(/C=C/C(=O)Nc2c(C)nn(C)c2C)cc1COc1ccc(Br)cc1
-4.32

Lookup O=c1[nH]c(CSc2ccccc2)nc2c1oc1ccccc12
-1.34

Lookup O=c1c2ccccc2ncn1/N=C/c1ccccc1
40.3

Lookup COc1ccc(O)c(/C=N/N=C/c2cccc([N+](=O)[O-])c2)c1
-1.21

Lookup CCC1(CC)NC(=O)N(Cc2nc3ccccc3s2)C1=O
19.8

Lookup CCOC(=O)c1cn[nH]c1NC(=S)Nc1ccccc1
67.1

Lookup CCCc1nc2ccccc2c(=O)n1/N=C/c1ccc(O)c(O)c1
-1.03
